# System: BV-2 cells
# assay.text: Inhibition of inflammation in LPS-stimulated BV-2 cells (ELISA of inflammatory factors)
# Format: cell-based
# measurement.parameters: Mus musculus, 100 ng/mL LPS 4 hours, read-out: BV-2 Rf IC50
Threshold check on IC50: strictly below 20 nM is condition met; on or above 20 nM is condition not met.

compound	experimental.system	group
O=c1ncn2nc(Oc3ccc(F)cc3F)ccc2c1-c1c(Cl)cccc1Cl [Compound I-4]	BV-2 cells	condition met
O=c1ncn2nc(Oc3ccc(Br)cc3)ccc2c1-c1c(Cl)cccc1Cl [Compound I-39]	BV-2 cells	condition not met
O=c1ncn2nc(Oc3ccc(Cl)cc3F)ccc2c1-c1c(Cl)cccc1Cl [Compound I-6]	BV-2 cells	condition met
O=c1ncn2nc(Oc3cc(Cl)ccc3Cl)ccc2c1-c1c(Cl)cccc1Cl [Compound I-22]	BV-2 cells	condition met
O=c1ncn2nc(Sc3ccc(F)cc3F)ccc2c1-c1c(Cl)cccc1Cl [VX-745, reference compound]	BV-2 cells	condition met
O=c1ncn2nc(Oc3ccccc3Br)ccc2c1-c1c(Cl)cccc1Cl [Compound I-17]	BV-2 cells	condition not met
O=c1ncn2nc(Oc3cccc(F)c3F)ccc2c1-c1c(Cl)cccc1Cl [Compound I-23]	BV-2 cells	condition met
O=c1ncn2nc(Oc3cc(Br)ccc3Cl)ccc2c1-c1c(Cl)cccc1Cl [Compound I-16]	BV-2 cells	condition met

Data origin, for the record: patent US20220048915A1
